Biological target: T1, EGFI-Cr1 Q45A (human, UniProt P16422 24-63)
T1 construct: not shown: the constant region of human immunoglobulin gamma 1 heavy chain (Cr1) fused at the C-terminus
T1 chain: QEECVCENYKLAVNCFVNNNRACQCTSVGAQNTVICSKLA
Test: direct ELISA, coated EGFI-Cr1 fusion, 0.1 µg/ml antibody
PARAMETER_MEASURED: relative binding activity (% of WT)
# include the unit after the value

Consider the reported relative binding activity (% of WT) for these binders:
murine monoclonal antibody 6D11 (antibody, mouse IgG1, V domains shown, Mouse IgG1, kappa, from hybridoma; also called m338-6D11.8) VH: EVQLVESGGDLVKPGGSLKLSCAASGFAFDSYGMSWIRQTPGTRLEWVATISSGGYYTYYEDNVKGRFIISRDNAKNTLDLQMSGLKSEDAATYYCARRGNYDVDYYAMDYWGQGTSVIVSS VL: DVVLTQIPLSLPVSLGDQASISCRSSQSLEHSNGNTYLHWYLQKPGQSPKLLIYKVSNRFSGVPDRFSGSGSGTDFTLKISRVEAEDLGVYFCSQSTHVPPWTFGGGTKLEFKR :: 8%
murine monoclonal antibody 1G10 (antibody, mouse IgG1, V domains shown, Mouse IgG1, kappa, from hybridoma; also called m290-1G10) VH: QIQLVQSGPELKKPGETVKISCKASGYTFTNYGMNWVKQAPGKGFKWMGWINTYTGEPTYADDFKGRFAFSLETSASTAYLQINNLQNEDMATYFCARWGYDFDYWGQGTTLTVSS VL: QIVLTQSPAIMSSSPGEKVTMTCSASSSISYMNWYQQKPGTSPKRWIYDTSKLASGVPARFSGSGSGTSYSLTISSMEAEDAATYYCHQRSSYPYTFGGGTKLEIKR :: 80%

Returns the measured relative binding activity (% of WT) for the input binder. Input: murine monoclonal antibody 4D2 (antibody, mouse IgG1, V domains shown, Mouse IgG1, kappa, from hybridoma; also called m338-4D2.20) VH: EVQLVESGGDLVKPGGSLKLSCAASGFAFDSYGMSWVRQTPGKRLEWVATISSGGYYTYYQDSVKGRFTTSRDNAKNTLDLQMSSLKSEDSAIYYCARRGNYDVDYYAMDYWGQGTSVTVSS VL: DVVMTQTPLSLPVSLGDQASISCRSSQSLVHSNGNTYLHWYLQKPGQSPKLLIYKVSNRFSGVPDRFSGSGSGTDFTLRISRVEAEDLGVYFCSQSTHVPPWTFGGGTKLEIKR
4%
